Experiment: Primary qHTS for delayed death inhibitors of the malarial parasite plastid, 96 hour incubation
Study Conditions: P. falciparum luciferase reporter growth; series mostly up to 28.7 µM
Screen size: about 320,000 compounds; about 22,000 (6.9%) were called active. Inconclusive results (about 27%) are left out. Calls follow the shape of the dose curve; as a rule, active = well fitted inhibition curve with a large enough effect; inconclusive = small, poorly fitted or top-dose-only effect, or another doubt; inactive = no such curve, though single readings can be large or run the other way. The sample as a whole holds a higher share of actives than the screen did.
Outcome codes: active, inactive

Compound: O=C(O)CCCN1C(=O)C2C3c4ccccc4C(c4ccccc43)[C@@H]2C1=O (stereo partly specified)
Label Value: inactive
--
Compound: O=c1[nH]c(N2CCN(Cc3ccc4c(c3)OCO4)CC2)nc2c1CCCC2
Label Value: active
--
Compound: O=C(NCc1ccc2c(c1)OCO2)c1ccc2c(c1)C(=O)N(CC1CCCO1)C2=O (stereo unspecified)
Label Value: inactive
--
Compound: CCN(CC(=O)Nc1c(F)cccc1F)C(=O)C1CCC1
Label Value: inactive
--
Compound: CCN1CCN(c2nc3c(c(=O)[nH]2)CCC3)CC1
Label Value: inactive
--
Compound: CCCCCc1c(C)nc(N2CCN(Cc3ccc4c(c3)OCO4)CC2)[nH]c1=O
Label Value: inactive

----------
Experiment: Primary qHTS for delayed death inhibitors of the malarial parasite plastid, 96 hour incubation
Study Conditions: P. falciparum luciferase reporter growth; series mostly up to 28.7 µM
Screen size: about 320,000 compounds; about 22,000 (6.9%) were called active. About 27% were inconclusive and are not listed. Calls follow the shape of the dose curve; as a rule, active = well fitted inhibition curve with a large enough effect; inconclusive = small, poorly fitted or top-dose-only effect, or another doubt; inactive = no such curve, though single readings can be large or run the other way. What follows is part of a selection rich in actives, with near analogues and random picks from the rest.
Outcome codes: active, inactive

Molecule: CNc1nc2c(C)cccn2c(=O)c1C=Nc1ccc(OC)cc1
Label Value: inactive

Molecule: Cc1cccn2c(=O)c(C=O)c(Nc3ccc(S(N)(=O)=O)cc3)nc12
Label Value: active

Molecule: O=C(N/N=C\C1CC=CCC1)c1ccc(Br)o1 (stereo unspecified)
Label Value: inactive

Molecule: COc1cccc(NC(=O)COC(=O)/C=C/c2ccco2)c1
Label Value: inactive

Molecule: Cc1nc2ccc(S(=O)(=O)NCC(=O)NCCN3CCCCC3C)cc2s1 (stereo unspecified)
Label Value: inactive

Molecule: Cc1nc2ccc(S(=O)(=O)NC(C(=O)N3CCCCCC3)C(C)C)cc2s1 (stereo unspecified)
Label Value: inactive

----------
Experiment: Primary qHTS for delayed death inhibitors of the malarial parasite plastid, 96 hour incubation
Study Conditions: P. falciparum luciferase reporter growth; series mostly up to 28.7 µM
Out of some 320,000 compounds screened, about 22,000 (6.9%) were called active. Not shown: some 27% with an inconclusive outcome. Calls follow the shape of the dose curve; as a rule, active = well fitted inhibition curve with a large enough effect; inconclusive = small, poorly fitted or top-dose-only effect, or another doubt; inactive = no such curve, though single readings can be large or run the other way. This excerpt belongs to a sample that is enriched for actives.
Outcome codes: active, inactive

Compound: Cc1ccc(C)c(S(=O)(=O)N2CCN(C(=O)Nc3ccccc3)CC2)c1
Label Value: inactive

Compound: CC1CCN(C(=O)Cn2cc(C(=O)c3ccco3)c3ccccc32)CC1
Label Value: active

Compound: COc1cc(C(C(=O)NC2CCCC2)N(C(=O)c2ccco2)c2ccccc2C(C)=O)cc(OC)c1OC (stereo not given)
Label Value: inactive

Compound: COc1ccc(C)cc1NC(=O)CNCc1cccs1
Label Value: active

Compound: O=C(CNCc1cccs1)Nc1cc(S(=O)(=O)N2CCCC2)ccc1Cl
Label Value: inactive

Compound: Cc1cccc(NC(=O)Cn2cc(C(=O)c3ccco3)c3ccccc32)c1
Label Value: inactive

Compound: CCCCn1c(N)c(N(CCC(C)C)C(=O)c2ccc(COc3ccccc3)o2)c(=O)[nH]c1=O
Label Value: inactive

Compound: N#Cc1ccc(Cn2cc(C(=O)c3ccco3)c3ccccc32)cc1
Label Value: inactive

Compound: Cc1ccc(C)c(S(=O)(=O)N2CCN(CC(=O)Nc3ccc([N+](=O)[O-])cc3)CC2)c1
Label Value: active

Compound: O=C(NCc1ccncc1)C1CCN(C(=O)c2cccc(Cl)c2)CC1
Label Value: inactive

----------
Experiment: Primary qHTS for delayed death inhibitors of the malarial parasite plastid, 96 hour incubation
Study Conditions: P. falciparum luciferase reporter growth; series mostly up to 28.7 µM
Screen size: about 320,000 compounds; about 22,000 (6.9%) were called active. Not shown: some 27% with an inconclusive outcome. Calls come from the whole dose curve; as a rule, active = well fitted inhibition curve with a large enough effect; inconclusive = small, poorly fitted or top-dose-only effect, or another doubt; inactive = no such curve, though single readings can be large or run the other way. The sample holds actives, similar compounds and a random draw of the others, so the mix is not that of the screen.
Outcome codes: active, inactive

Compound: O=C(OCC(=O)N1CCOCC1)c1ccc2ccccc2c1
Label Value: inactive

Compound: Cc1ccc(S(=O)(=O)CC(=O)Nc2nnc(C)s2)cc1
Label Value: inactive

Compound: CCN(C(=O)Cc1c(C(=O)O)n(CC)c2ccccc12)c1ccccc1C
Label Value: inactive

Compound: CCCCc1nc(SCC(=O)Nc2nnc(C(C)C)s2)n[nH]1
Label Value: inactive

Compound: CN1CCN(C(=O)C(=O)c2cn(CC(=O)N3CCCC3)c3ccccc23)CC1
Label Value: inactive

Compound: Cc1coc2c1c(C)cc1oc(=O)c(CC(=O)NCC(=O)N[C@H](C(=O)O)C(C)C)c(C)c12
Label Value: inactive

Compound: COc1ccc(C(=O)NCCCN2CCOCC2)cc1Br
Label Value: inactive

Compound: CCN(CC(=O)Nc1ccccc1C(=O)NC1CC1)Cc1cccs1
Label Value: inactive

Compound: COc1ccccc1N1CC(C(=O)Nc2nnc(SCC(=O)NC(C)C)s2)CC1=O (stereo unspecified)
Label Value: inactive

Compound: Cc1ccc(C(=O)N/C(=C\c2ccc(F)cc2)C(=O)NCCN2CCOCC2)cc1
Label Value: active

Compound: Cc1cc(C)cc(C(=O)NCCN2CCOCC2)c1
Label Value: inactive

----------
Experiment: Primary qHTS for delayed death inhibitors of the malarial parasite plastid, 96 hour incubation; also: potency is read from the fitted curve at half-maximal effect
Study Conditions: P. falciparum luciferase reporter growth; series mostly up to 28.7 µM
Source text: The goal of this screen is to discover new antimalarial compounds that act by inhibiting the development of the apicoplast in the malarial parasite Plasmodium falciparum. […] We have developed a cell-based assay that measures parasite growth based on the expression of an integrated copy of a firefly luciferase reporter. […] Growth inhibition is detected by a decrease in luciferase activity. […]
The campaign covered roughly 320,000 compounds. About 22,000 (6.9%) were called active. Another 27% or so got no clear call; they are omitted. This is one part of a sample in which actives are shown more often than they occur.
Readout Label: Potency

Compound: Cc1ccc(-c2csc(N3CCN(c4cc5c(cc4Cl)nc(-c4ccncc4)n5CCOCCO)CC3)n2)cc1
Readout Label: Potency
Recorded Measurement: 5.86 µM (active)
//
Compound: Cc1ccccc1-n1c(SCC(=O)NCc2cccs2)nnc1-c1ccncc1
Readout Label: Potency
Recorded Measurement: inactive
//
Compound: O=C(Cc1c(Cl)cccc1Cl)NC1CC1
Readout Label: Potency
Recorded Measurement: inactive
//
Compound: O=C(CCS(=O)(=O)Cc1ccccc1)Nc1ccc2c(c1)OCCO2
Readout Label: Potency
Recorded Measurement: 2.94 µM (active)
//
Compound: COc1ccc(C2(C)NC(=O)N(CC(=O)c3ccc4c(c3)OCO4)C2=O)cc1 (configuration not stated)
Readout Label: Potency
Recorded Measurement: inactive
//
Compound: CCCC1=Nc2cc(C(=O)NCc3ccco3)ccc2Sc2ccccc21
Readout Label: Potency
Recorded Measurement: 2.94 µM (active)
//
Compound: C=CCN(C(=O)Nc1ccc2oc(C)nc2c1)c1ccccc1
Readout Label: Potency
Recorded Measurement: inactive
//
Compound: Cc1ccc(-n2c(SCC(=O)NCc3ccc4c(c3)OCO4)nnc2-c2cccnc2)c(C)c1
Readout Label: Potency
Recorded Measurement: 9.28 µM (active)
//
Compound: CCC(=O)N1c2ccc(S(=O)(=O)NCc3ccco3)cc2CC1C (configuration not stated)
Readout Label: Potency
Recorded Measurement: inactive
//
Compound: CCCn1c(C2CCCN2c2nc(-c3ccc(C)cc3)cs2)nc2cc(Cl)c(N3CCCCC3)cc21 (configuration not stated)
Readout Label: Potency
Recorded Measurement: 3.29 µM (active)
//
Compound: C[C@@H](NC(=O)c1nc[nH]c1C(=O)N1CCN(C(=O)OC(C)(C)C)CC1)c1ccccc1
Readout Label: Potency
Recorded Measurement: inactive
//
Compound: Cc1cccc(C)c1NC(=O)CSc1nnc(-c2ccccc2)n1Cc1ccc2c(c1)OCO2
Readout Label: Potency
Recorded Measurement: inactive
//
Compound: C=CCN(C(=O)Cn1ncc2c1-c1cc(C)ccc1OC2)c1ccccc1
Readout Label: Potency
Recorded Measurement: 9.28 µM (active)
//
Compound: CCOC(=O)N1CCN(C(=O)C2CCN(S(=O)(=O)c3cc(Cl)ccc3OCC)CC2)CC1
Readout Label: Potency
Recorded Measurement: inactive
//
Compound: COc1ccc(NC(=O)NC2CC3CCCC(C2)N3Cc2ccccc2)cc1 (configuration not stated)
Readout Label: Potency
Recorded Measurement: inactive
//
Compound: COc1ccccc1-n1ccnc(SCC(=O)NC2CCCCC2)c1=O
Readout Label: Potency
Recorded Measurement: inactive
//
Compound: Cc1ccccc1OC(=O)Cn1c(C(F)(F)F)nc2ccccc21
Readout Label: Potency
Recorded Measurement: inactive
//
Compound: C/C(=N/Nc1ccc(Cl)cc1)c1cnnc(-c2ccccc2)n1
Readout Label: Potency
Recorded Measurement: 0.522 µM (active)
//
Compound: Cc1cc(C)cc(NC(=S)NC2CC3CCCC(C2)N3Cc2cccs2)c1 (configuration not stated)
Readout Label: Potency
Recorded Measurement: 2.33 µM (active)
//
Compound: COc1ccc(C)cc1NC(=O)NCCCCc1ccccc1
Readout Label: Potency
Recorded Measurement: inactive
//
Compound: CCCc1nnc(NC(=O)CCC(=O)NC2CC2)s1
Readout Label: Potency
Recorded Measurement: inactive
//
Compound: COCCn1c(C)cc(C(=O)COC(=O)CNC(=O)c2ccco2)c1C
Readout Label: Potency
Recorded Measurement: inactive
